- system-tested: CCK-A receptor (Homo sapiens)
- Sequence (P32238 1-428): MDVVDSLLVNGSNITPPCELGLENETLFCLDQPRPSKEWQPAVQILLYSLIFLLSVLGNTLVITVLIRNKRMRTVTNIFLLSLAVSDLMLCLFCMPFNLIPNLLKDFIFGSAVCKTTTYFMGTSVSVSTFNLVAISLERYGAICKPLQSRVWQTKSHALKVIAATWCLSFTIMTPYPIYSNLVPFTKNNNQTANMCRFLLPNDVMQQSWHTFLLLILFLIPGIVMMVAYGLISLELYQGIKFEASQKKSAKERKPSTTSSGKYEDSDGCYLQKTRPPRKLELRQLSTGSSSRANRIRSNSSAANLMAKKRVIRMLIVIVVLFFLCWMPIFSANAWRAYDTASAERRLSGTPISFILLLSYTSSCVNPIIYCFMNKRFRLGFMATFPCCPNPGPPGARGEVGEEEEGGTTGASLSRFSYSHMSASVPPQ
attribute-measured: pKi
Answers are plain numbers, as −log10 of the molar value.

Identify measured pKi obtained with CCK-A receptor (Homo sapiens) for CC(C)Oc1cccc(-n2c(NNC(=O)Nc3ccc(Br)cc3)nc3ccccc3c2=O)c1 .
5.46
